Target entity: Virion infectivity factor (Human immunodeficiency virus type 1 group M subtype B (isolate BH10)) + Virion infectivity factor (Human immunodeficiency virus type 1 group M subtype B (isolate BRU/LAI)) + Virion infectivity factor (Human immunodeficiency virus type 1 group M subtype B (isolate PCV12)) + Virion infectivity factor (Human immunodeficiency virus type 1 group M subtype B (isolate HXB2)) + DNA dC->dU-editing enzyme APOBEC-3G (Homo sapiens) (UniProt P69720+P69721+P69722+P69723+Q9HC16)
Assay name: inhibitors of Vif binding to APOBEC3G peptide, primary screen, biochemical, TR-FRET, GST-Vif 1-94, biotin-A3G peptide, dose response retest (AID 1117319);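 also: Vif residues 1-94 fused to GST binding biotinylated APOBEC3G peptide 110-148; 0% = full assay without inhibitor and 100% = GST in place of GST-Vif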
Assay conditions: active compounds read high
The whole screen tested about 260,000 compounds, of which about 1,500 (0.58%) were called active. Roughly 5% stayed inconclusive and do not appear here. The list is a sample of the results. Measured potencies and affinities stand elsewhere.
Each entry below carries its reported inhibition.
Expressed in %, but write only the number.

Answered cases to consult:
Cc1ccc(-c2cc(C(=O)Nc3c(C)n(C)n(-c4ccccc4)c3=O)[nH]n2)c(O)c1 | 23.2
c1cc2c3c(cccc3c1)NC1(CCCC1)N2 | 2.08
Cc1nc2nc(C(F)(F)F)[nH]c2nc1C | 0.02
Nc1cccc(Nc2ccccc2)c1 | 1.33

Problem: Reported inhibition for CC(C)C(=O)Nc1nnc(Cc2ccccc2)s1 : what is it?
Solution: -2.22

Problem: Name the reported inhibition value associated with the compound COc1ccc(S(=O)(=O)NCCSCc2ccco2)cc1
Solution: 24

Problem: Given the entry COc1cc(C(=O)NCC(c2ccco2)N2CCCC2)ccc1OCc1ccccc1 (configuration not stated) , report its measured inhibition.
Solution: 3.67

Problem: Item under review: CC(C)c1cc(C(=O)OCC(=O)NC2CC2)c(O)c(C(C)C)c1 . Reported inhibition?
Solution: 1.52

Problem: Give the measured inhibition of COc1ccc(C2C(C(C)=O)=C(C)N=c3s/c(=C\c4ccco4)c(=O)n32)c(OC)c1 (configuration not stated) .
Solution: 31.2

Problem: Fill in the blank: the reported inhibition of COc1ccc(NC(=O)CCSc2ccc(F)cc2)cc1 is ____.
Solution: 29.9

Problem: Query: inhibition; subject: COc1ccc(OCCNC(=S)Nc2cccc3ccccc23)cc1
Solution: 2.41

Hello, the source for this data is PubChem BioAssay AID1117319, in case you need it.
